# Test system: Liver microsomes
# test: Antioxidant activity in rat liver microsomes assessed as inhibition of Fe2+-cysteine-induced lipid peroxidation measured malondialdehyde level at 10^-6 M/L incubated for 15 mins prior to FeSO4 addition measured after 15 mins by TBA method relative to control
# Type: functional
# condition_parameters: Microsome
Give inhibition for every item shown.
Write the value in % as a bare number.

inhibition on Liver microsomes for N#C[C@H](O[C@@H]1O[C@H](CO[C@@H]2O[C@H](COC(=O)c3cccnc3)[C@@H](O)[C@H](O)[C@H]2O)[C@@H](O)[C@H](O)[C@H]1O)c1ccccc1 is 56

inhibition on Liver microsomes for CCOC(=O)[C@H](O[C@@H]1O[C@H](CO[C@@H]2O[C@H](CO)[C@@H](O)[C@H](O)[C@H]2O)[C@@H](O)[C@H](O)[C@H]1O)c1ccccc1 is 56

inhibition on Liver microsomes for O=C(OC[C@H]1O[C@@H](OC[C@H]2O[C@@H](OC(=O)c3ccccc3)[C@H](O)[C@@H](O)[C@@H]2O)[C@H](O)[C@@H](O)[C@@H]1O)c1ccccc1 is 56

inhibition on Liver microsomes for O=C(OC[C@H]1O[C@@H](O[C@@H](C(=O)O)c2ccccc2)[C@H](O)[C@@H](O)[C@@H]1O)c1ccccc1 is 53

inhibition on Liver microsomes for O=C(OC[C@H]1O[C@@H](OC[C@H](O)[C@@H](O)c2ccc(O)cc2)[C@H](O)[C@@H](O)[C@@H]1O)c1ccccc1 is 57

inhibition on Liver microsomes for O=C(OC[C@H]1O[C@@H](OC[C@H]2O[C@@H](OCc3ccccc3)[C@H](O)[C@@H](O)[C@@H]2O)[C@H](O)[C@@H](O)[C@@H]1O)c1ccccc1 is 59

inhibition on Liver microsomes for COc1cc(CO)ccc1O[C@@H]1O[C@H](COC(=O)c2ccccc2)[C@@H](O)[C@H](O)[C@H]1O is 41

###

Give inhibition for every item shown.
# Tested on: Liver microsomes
# test: Antioxidant activity in rat liver microsomes assessed as inhibition of Fe2+-cysteine-induced lipid peroxidation measured malondialdehyde level at 10^-5 M/L incubated for 15 mins prior to FeSO4 addition measured after 15 mins by TBA method relative to control
# Assay type: functional
# condition_parameters: Microsome
Write the value in % as a bare number.

Record summary for COc1cc(CO)ccc1O[C@@H]1O[C@H](COC(=O)c2ccccc2)[C@@H](O)[C@H](O)[C@H]1O : reported inhibition = 42

Record summary for O=C(OC[C@H]1O[C@@H](OC[C@H]2O[C@@H](OC(=O)c3ccccc3)[C@H](O)[C@@H](O)[C@@H]2O)[C@H](O)[C@@H](O)[C@@H]1O)c1ccccc1 : reported inhibition = 66

Record summary for N#C[C@H](O[C@@H]1O[C@H](CO[C@@H]2O[C@H](COC(=O)c3cccnc3)[C@@H](O)[C@H](O)[C@H]2O)[C@@H](O)[C@H](O)[C@H]1O)c1ccccc1 : reported inhibition = 67

Record summary for O=C(OC[C@H]1O[C@@H](OC[C@H](O)[C@@H](O)c2ccc(O)cc2)[C@H](O)[C@@H](O)[C@@H]1O)c1ccccc1 : reported inhibition = 64
